Each record here notes measured pIC50.
target: full length active recombinant SYK enzyme (Homo sapiens, UniProt P43405); construct: full length active recombinant SYK enzyme (Millipore, Calif.); assay: Inhibition of Syk tyrosine phosphorylation activity (LANCE TR-FRET kinase assay); settings: 1 nM active SYK enzyme, 550 nM SYK-substrate, 100 μM ATP, 1 hour at room temperature
pIC50: −log10 of the molar value.

Would you please look over these solved cases?
CC[C@@H](Nc1nnc(C(N)=O)c(Nc2ccc(C)c(Cl)c2)n1)C(N)=O [Example 222] :: 7.00 to 8.00
Cn1cc(C#N)c2ccc(Nc3nc(N[C@H](CC(F)F)C(N)=O)nnc3C(N)=O)cc21 [Example 147] :: 8.00 to 9.00
Cn1ncc2c(Nc3nc(N[C@@H]4CCCC[C@@H]4N)nnc3C(N)=O)ccnc21 [Example 104] :: 7.00 to 8.00
CC[C@@H](Nc1nnc(C(N)=O)c(Nc2cnc3cccnc3c2)n1)C(N)=O [Example 146] :: 6.00 to 7.00

compound Cn1ccc2c(Nc3nc(N[C@@H]4CCCC(F)(F)[C@@H]4N)nnc3C(N)=O)cccc21 [Example 94] , pIC50 observed: 8.00 to 9.00

----------
target: full length active recombinant SYK enzyme (Homo sapiens, UniProt P43405); construct: full length active recombinant SYK enzyme (Millipore, Calif.); assay: Inhibition of Syk tyrosine phosphorylation activity (LANCE TR-FRET kinase assay); details: 1 nM active SYK enzyme, 550 nM SYK-substrate, 100 μM ATP, 1 hour at room temperature
metric: IC50

CC[C@@H](Nc1nnc(C(N)=O)c(Nc2ccc3cn[nH]c3c2)n1)C(N)=O :: 1 to 10 nM
NC(=O)c1nnc(N[C@@H]2CCCC[C@@H]2N)nc1Nc1csc2ncccc12 :: 1 to 10 nM
Cc1ccc(Nc2nc(N[C@@H]3CCCC(F)(F)[C@@H]3N)nnc2C(N)=O)cc1C#N :: 100 to 1000 nM
CC[C@@H](Nc1nnc(C(N)=O)c(Nc2cc(C)ns2)n1)C(N)=O :: 10 to 100 nM
NC(=O)c1nnc(N[C@@H]2CCCC[C@@H]2N)nc1Nc1ccc2nccn2c1 :: 10 to 100 nM
NC(=O)c1nnc(N[C@@H]2CCCC[C@@H]2N)nc1Nc1ccc2ncsc2c1 :: 1 to 10 nM
Cn1ccc2c(Nc3nc(N[C@@H](C(N)=O)C(C)(C)C)nnc3C(N)=O)cccc21 :: 100 to 1000 nM
NC(=O)c1nnc(N[C@@H]2CCCC[C@@H]2N)nc1Nc1cccnc1 :: 10 to 100 nM

molecule NC(=O)c1nnc(N[C@@H]2CCCC[C@@H]2N)nc1Nc1ccc(-n2nccn2)cc1 , IC50 observed: 10 to 100 nM

molecule NC(=O)c1nnc(N[C@@H]2CCNC2)nc1Nc1ccc2ncccc2c1 , IC50 observed: 1 to 10 nM

molecule NC(=O)c1nnc(N[C@H](CC2CC2)C(N)=O)nc1Nc1ccc(Cl)c(Cl)c1 , IC50 observed: 10 to 100 nM

molecule NC(=O)c1nnc(N[C@@H]2CCCC(F)(F)[C@@H]2N)nc1Nc1ccc2c(c1)CCC2 , IC50 observed: 10 to 100 nM

molecule CC[C@@H](Nc1nnc(C(N)=O)c(Nc2ccc3c(cnn3C)c2)n1)C(N)=O , IC50 observed: 10 to 100 nM
